The reported numbers originate from patent US9840513B2.

Entries and their measured Maximum % activity (%) follow.
- target-of-assay: F508delCFTR cell surface expression in CFBE41o-F508delCFTR-HRP cells (Homo sapiens, UniProt P13569, DEL508-508)
- Construct: fused on or other part: Horseradish peroxidase (HRP) reporter inserted in the fourth exofacial (extracellular) loop of CFTR; expression is doxycycline-inducible
- Sequence (P13569 with tags, fused parts or gaps DEL508-508 limits assumed): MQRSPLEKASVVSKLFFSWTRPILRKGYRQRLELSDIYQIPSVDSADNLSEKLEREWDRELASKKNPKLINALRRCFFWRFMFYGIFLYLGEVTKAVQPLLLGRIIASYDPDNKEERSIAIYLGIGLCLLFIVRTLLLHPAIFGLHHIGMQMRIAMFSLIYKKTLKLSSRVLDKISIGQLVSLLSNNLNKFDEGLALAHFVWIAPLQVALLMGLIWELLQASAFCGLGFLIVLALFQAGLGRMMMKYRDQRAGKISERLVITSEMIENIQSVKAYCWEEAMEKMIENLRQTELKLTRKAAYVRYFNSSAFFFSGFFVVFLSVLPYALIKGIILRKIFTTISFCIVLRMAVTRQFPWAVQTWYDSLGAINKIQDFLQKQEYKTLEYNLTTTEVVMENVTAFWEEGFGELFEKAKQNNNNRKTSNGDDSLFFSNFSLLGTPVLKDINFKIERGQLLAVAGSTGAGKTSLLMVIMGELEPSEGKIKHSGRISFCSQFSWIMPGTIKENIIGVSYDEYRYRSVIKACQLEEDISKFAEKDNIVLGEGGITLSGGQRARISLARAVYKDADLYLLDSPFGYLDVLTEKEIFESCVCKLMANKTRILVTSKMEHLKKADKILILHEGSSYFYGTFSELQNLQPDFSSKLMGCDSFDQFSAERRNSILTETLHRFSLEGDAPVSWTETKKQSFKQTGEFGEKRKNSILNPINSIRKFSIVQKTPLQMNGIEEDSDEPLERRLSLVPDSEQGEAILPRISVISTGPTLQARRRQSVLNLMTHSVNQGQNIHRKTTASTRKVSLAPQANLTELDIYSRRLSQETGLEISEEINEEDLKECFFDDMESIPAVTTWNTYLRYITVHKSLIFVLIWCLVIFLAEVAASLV
- Sequence (P13569 919-1480 limits assumed, stated change not applied): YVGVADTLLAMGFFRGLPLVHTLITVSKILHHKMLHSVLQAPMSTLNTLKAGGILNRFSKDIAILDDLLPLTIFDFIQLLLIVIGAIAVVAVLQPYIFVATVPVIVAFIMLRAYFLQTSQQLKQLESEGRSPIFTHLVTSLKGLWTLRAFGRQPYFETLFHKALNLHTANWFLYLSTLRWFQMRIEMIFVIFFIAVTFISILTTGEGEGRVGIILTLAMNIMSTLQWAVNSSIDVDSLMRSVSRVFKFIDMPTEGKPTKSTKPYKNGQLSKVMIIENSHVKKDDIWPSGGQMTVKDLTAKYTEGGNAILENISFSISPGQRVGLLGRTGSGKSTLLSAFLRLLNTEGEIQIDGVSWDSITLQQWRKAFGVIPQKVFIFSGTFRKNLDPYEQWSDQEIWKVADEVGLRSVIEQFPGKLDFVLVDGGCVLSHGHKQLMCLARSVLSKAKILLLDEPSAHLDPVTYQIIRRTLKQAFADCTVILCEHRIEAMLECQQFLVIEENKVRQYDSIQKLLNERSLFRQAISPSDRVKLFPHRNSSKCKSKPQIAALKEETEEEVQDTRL
- procedure-details: Cell Surface Expression-Horse Radish Peroxidase (CSE-HRP) Assay
- Format: cell-based
- test-settings: maximum at any tested concentration, normalized to on-plate positive control (3 μM)
Quick note: give the figure in %, leave out the unit.

Guide cases for Maximum % activity (%), answers given:
compound	quantitative-result
C[C@]1(C(=O)N[C@@H]2C[C@H]([C@H]3CC[C@H](C(=O)Nc4ccccc4O)CC3)Oc3cc(OC(F)(F)F)ccc32)COc2cc3c(cc21)OC(F)(F)O3	184
C[C@]1(C(=O)Nc2cc3cc(C4(COCc5ccccc5)CC4)n(C[C@@H](O)CO)c3cc2F)COc2cc3c(cc21)OC(F)(F)O3	125
Cc1c(C(=O)O)cccc1-c1cccc(NC(=O)[C@@]2(C)COc3cc4c(cc32)OC(F)(F)O4)n1	173
Cc1ccc(NC(=O)[C@@]2(C)COc3cc4c(cc32)OC(F)(F)O4)nc1-c1ccc(C(=O)NS(C)(=O)=O)cc1	180
C[C@]1(C(=O)Nc2cccc(N3CCCC3)n2)COc2cc3c(cc21)OC(F)(F)O3	123

We now examine a further compound.
Fill in reported Maximum % activity (%) for this entry: COc1ccc2c(c1)O[C@@H](c1ccc(OCc3ccccc3)nn1)C[C@H]2NC(=O)[C@@]1(C)COc2cc3c(cc21)OC(F)(F)O3 (single isomer, unassigned)
92
